System: OVCAR-5 ovarian
Assay: NCI-60 one-dose screen, 48 h (100 = growth as untreated, 0 = no growth, -100 = all killed)
Details: 10 µM unless noted
Compounds without any hit were thinned out: in the full panel of roughly 83,000, 20% have a hit.
Reported growth values for the following compounds.
measuredProperty: growth (%)

compound	experimentalResult
CCOC(=O)c1nn(C2CCCCO2)c2ccc(NC(=O)Cn3nnc4ccccc43)cc12 (stereo unspecified)	97.7
Cc1ccc(N)c(O)c1	108
Nc1nc(Nc2ccccc2)c2ncn(Cc3ccc4c(c3)OCO4)c2n1	71.5
CCOc1ccc2sc(NS(=O)(=O)c3ccc(N)cc3)nc2c1	109
O=C(O)c1cn(C2CC2)c2cc(N3CCN(Cc4cc(Cl)ccc4O)CC3)c(F)cc2c1=O	89.4
COc1ccc(NC(=O)Nc2ccc(-c3cccnc3)cc2N2CCC(CO)CC2)cc1	49.6
c1coc2occoc=2o1	101
O=C(Oc1ccc(Cl)cc1[N+](=O)[O-])Oc1ccc(Cl)cc1[N+](=O)[O-]	108
Cc1cc(C)nc(SCC(=O)Nc2cccc(N=Cc3ccccc3O)c2)n1	100
CC(=O)Nc1ccc(C=Nc2ccc3ccccc3c2)cc1	117
Cc1ccc(Oc2c(/C=N/NC(=O)Cn3c(=O)sc4ccccc43)c(C)nn2-c2ccccc2)cc1	74.1

---

System: HOP-92 NSCLC
Assay: NCI-60 one-dose screen, 48 h
Conditions: 10 µM unless noted
This is part of a sample that, as a whole, favours compounds with a hit. Of some 83,000 tested, about 20% had one in any assay. Activity calls are given as the source filed them. How the source made its calls: active means growth percent below 10; inactive means the rest.
Classes used: true = active, false = inactive

compound	qualitativeLabel
CCOC(=O)/C(C#N)=C(\C)CCc1ccccc1	false
COc1cc(-c2nc(SCCC(C)C)nc(Nc3ccccc3)c2C#N)cc(OC)c1OC	false
c1coc2occoc=2o1	false
Clc1ccc(/C=N/Nc2nc3ccccc3s2)c(Cl)c1	false
C=C(C)[C@@H]1CC[C@]2(C)[C@H](CC[C@@H]3[C@@H]([C@@](C)(O)CCC=C(C)C)CC[C@]32C)[C@@]1(C)CCC(=O)N1CCN(C)CC1	true
CC1Cc2c(Cl)ncnc2N(C)c2ccc(O)cc21 (stereo not given)	false
CCN(CC)CCCC(C)Nc1c2ccc(C)cc2nc2ccc(OC)cc12 (stereo not given)	false
COc1ccc2nc3cc(Cl)ccc3c(Nc3ccc(O)c(CN4CCCC4)c3)c2c1	false
C#CCNC(=O)CC[C@@H](C)[C@H]1CC[C@H]2[C@@H]3CC[C@@H]4CC(=O)CC[C@]4(C)[C@H]3CC[C@]12C	true
COc1ccc(-c2ccc(NNC(=O)c3ccc(F)cc3)nn2)cc1OC	true

---

Reported growth values for the following molecules.
Tested on: CAKI-1 renal
Assay: NCI-60 one-dose screen, 48 h (100 = growth as untreated, 0 = no growth, -100 = all killed)
Details: 10 µM unless noted
About 83,000 compounds went through this panel and 20% of them were active in at least one assay; those are over-represented in the sample as a whole. Calls of active or inactive are those of the source. The calls were made as follows: active = growth percent below 10; inactive = the rest.
measuredProperty: growth

molecule	experimentalResult
COc1ccc2c(c1)c(-c1noc(C(=O)c3cn(C)c4ncc(Br)cc34)n1)cn2C	68.9% (inactive)
C=C(C)C1CCC2(C(=O)O)CCC3(C)C(CCC4C5(C)CCC(OC(=O)NCc6ccccc6)C(C)(C)C5CCC43C)C12 (stereo unspecified)	16.1% (inactive)
CCCCNC(=O)NS(=O)(=O)Cc1ccccc1	100% (inactive)
COc1ccc(C2NC(=O)C(C#N)c3c2sc2c(F)cccc32)cc1 (stereo unspecified)	40% (inactive)
CCN(CCNc1ccc(C)c2sc3cc(Cl)ccc3c(=O)c12)CC(C)O (stereo unspecified)	43.7% (inactive)
CCN(CC)c1ccc(/C=C/C=C2\NC(=O)NC2=O)cc1	16.7% (inactive)
Brc1ccc2c(c1)CN(C1CCCCC1)CO2	102% (inactive)
COc1ncc(-c2ccc3nccc(C#CCCCCC(=O)O)c3c2)cc1NS(=O)(=O)c1ccc(F)cc1F	14.1% (inactive)
Clc1ccc(N2CCN(CCCN3CCN(c4cccc(Cl)c4)CC3)CC2)cc1	42.7% (inactive)
COc1cc2c(c(OC)c1OC)-c1ccc(NNC(N)=S)c(=O)cc1[C@@H](NC(C)=O)CC2	37.5% (inactive)
CC1(C)CC[C@]23CC[C@]4(C)[C@H](CC[C@@H]5[C@@]6(C)C/C(=C/c7cccnc7)C(=O)C(C)(C)[C@@H]6CC[C@]54C)[C@H]2[C@H]1OC3=O	40.6% [100 µM] (inactive)
COc1ccc2nc3cc(Cl)ccc3c(Nc3ccc(O)c(CN4CCCC4)c3)c2c1	8.96% (active)
O=c1cc(-c2ccccc2)oc2c(O)c(O)ccc12	37.4% (inactive)
CC(C)c1ccc(C(=O)Nc2sc3c(c2C#N)CCC(=O)C3)cc1	-44.3% (active)
O=C(CCN1CCCCC1)c1ccc(Cl)cc1	95.2% (inactive)
COc1ccc(C2CC(c3ccc4ccccc4c3)=NN2c2nc(O)c(C3=c4cc(OC)ccc4=NC3=O)s2)cc1 (stereo unspecified)	-59.6% (active)
CCCCN(CC)CC(CC)Nc1cc(OC)cc2cccnc12 (stereo unspecified)	111% (inactive)
COc1ccc(NC(=S)NNc2ccc(-c3ccc(OC)c(OC)c3)nn2)cc1	77% (inactive)
Cn1cc(-c2noc(-c3cn(C)c4ncc(Br)cc34)n2)c2cc(Cl)ccc21	50.8% (inactive)
NC(=S)Cc1ccccc1	89.1% (inactive)
Cc1cnc(N)nc1OCCNC(=O)c1cccc(-c2ccc(S(=O)(=O)Nc3ccc4c(c3)N(C(=O)C3CC3)CCC4)cc2)c1	77.4% (inactive)
